# Urine P % of control values compiled below
test system: phosphorus and calcium levels in the urine of rats; experiment: Urinary excretion of phosphate and calcium in rats (16 h overnight urine); format: in vivo, rat; details: rats, oral gavage, dose 10 mg/kg, 16 h post-dose
Quick reminder: number only, in %, skip the unit.

These recorded examples may help you get a feel for the data.
NCCOCCOCCOCCN1CCN(c2ccc(-c3nc(N=C(N)N)nc4ccc(Cl)cc34)cc2)CC1 142
N=C(N)Nc1nc(-c2cccc(S(=O)(=O)NCCOCCOCCOCCN)c2)c2cc(Cl)ccc2n1 94

Query: I'd like to know its Urine P % of control. The molecule in question is CN(CC(=O)NCCOCCOCCNC(=O)NCCOCCOCCOCCN1CCN(c2cccc(-c3nc(NC(=N)N)nc4ccc(Cl)cc34)c2)CC1)CC(=O)NCCOCCOCCNC(=O)NCCOCCOCCOCCN1CCN(c2cccc(-c3nc(NC(=N)N)nc4ccc(Cl)cc34)c2)CC1
Result: 94

====

# pIC50 Prompt values compiled below
Target: Human NHE3 (Homo sapiens)
Construct: expressed in transfected cells; host or cells: Opossum kidney (OK) cells (ATCC), electroporation
Sequence (P48764 26-834): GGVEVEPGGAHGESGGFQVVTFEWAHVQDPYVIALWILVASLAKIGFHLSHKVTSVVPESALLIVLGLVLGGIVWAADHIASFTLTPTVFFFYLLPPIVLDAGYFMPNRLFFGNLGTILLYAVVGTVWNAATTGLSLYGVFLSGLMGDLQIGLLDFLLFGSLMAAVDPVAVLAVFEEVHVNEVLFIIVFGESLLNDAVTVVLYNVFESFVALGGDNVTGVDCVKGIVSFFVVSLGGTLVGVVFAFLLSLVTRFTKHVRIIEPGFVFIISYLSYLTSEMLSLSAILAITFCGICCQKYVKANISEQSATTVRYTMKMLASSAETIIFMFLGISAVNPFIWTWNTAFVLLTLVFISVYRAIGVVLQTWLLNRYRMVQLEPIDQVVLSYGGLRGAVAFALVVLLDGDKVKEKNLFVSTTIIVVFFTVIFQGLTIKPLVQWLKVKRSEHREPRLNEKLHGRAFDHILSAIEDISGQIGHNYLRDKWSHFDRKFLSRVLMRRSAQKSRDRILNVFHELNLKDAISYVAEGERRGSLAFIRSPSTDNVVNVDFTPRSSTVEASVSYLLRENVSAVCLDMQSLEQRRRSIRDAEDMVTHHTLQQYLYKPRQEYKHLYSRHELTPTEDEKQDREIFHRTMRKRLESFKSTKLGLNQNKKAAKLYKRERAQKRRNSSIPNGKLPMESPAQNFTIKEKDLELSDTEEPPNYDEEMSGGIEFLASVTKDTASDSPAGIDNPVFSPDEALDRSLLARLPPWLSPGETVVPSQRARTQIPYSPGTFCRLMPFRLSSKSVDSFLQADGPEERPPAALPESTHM
Experiment: Cell-based NHE3 activity under prompt conditions (OK cells, BCECF pH recovery), human NHE3
Conditions: Table E6; NHE3 species not stated
# output: bare number, no unit

These recorded examples may help you get a feel for the data.
CN1Cc2c(Cl)cc(Cl)cc2[C@H](c2cccc(S(=O)(=O)NCCOCCOCCNC(=O)Nc3ccc(NC(=O)NCCOCCOCCNS(=O)(=O)c4cccc([C@@H]5CN(C)Cc6c(Cl)cc(Cl)cc65)c4)cc3)c2)C1 8
CN1Cc2c(Cl)cc(Cl)cc2[C@H](c2cccc(S(=O)(=O)NCCOCCOCCNC(=O)NCCCCNC(=O)NCCOCCOCCNS(=O)(=O)c3cccc([C@@H]4CN(C)Cc5c(Cl)cc(Cl)cc54)c3)c2)C1 8

Query: I'd like to know its pIC50 Prompt. The compound in question is CN1Cc2c(Cl)cc(Cl)cc2[C@@H](c2cccc(S(=O)(=O)NCCOCCOCCNC(=O)NCCCCNC(=O)NCCOCCOCCNS(=O)(=O)c3cccc([C@H]4CN(C)Cc5c(Cl)cc(Cl)cc54)c3)c2)C1
Result: 7.3

====

system: phosphorus and calcium levels in the urine of rats; assay: Urinary excretion of phosphate and calcium in rats (16 h overnight urine); type: in vivo, rat; conditions: rats, oral gavage, dose 10 mg/kg, 16 h post-dose
# Urine P % of control values compiled below
Quick reminder: number only, in %, skip the unit.

Molecule	Uom	Urine P % of control
CN1Cc2c(Cl)cc(Cl)cc2C(c2cccc(S(=O)(=O)NCCOCCOCCOCCNC(=O)CN(CCN(CCN(CC(=O)NCCOCCOCCOCCNS(=O)(=O)c3cccc([C@@H]4CN(C)Cc5c(Cl)cc(Cl)cc54)c3)CC(=O)NCCOCCOCCOCCNS(=O)(=O)c3cccc([C@@H]4CN(C)Cc5c(Cl)cc(Cl)cc54)c3)CC(=O)NCCOCCOCCOCCNS(=O)(=O)c3cccc([C@@H]4CN(C)Cc5c(Cl)cc(Cl)cc54)c3)CC(=O)NCCOCCOCCOCCNS(=O)(=O)c3cccc([C@@H]4CN(C)Cc5c(Cl)cc(Cl)cc54)c3)c2)C1 (stereo in doubt)	%	55
N=C(N)Nc1nc(-c2ccc(S(=O)(=O)NCCOCCOCCN)cc2)c2cc(Cl)ccc2n1	%	101
O=C(CCOCCOCCOCCOCCOCCC(=O)NCCOCCOCCNS(=O)(=O)c1ccc(OC2c3ccccc3CC2N2CCCCC2)cc1)NCCOCCOCCNS(=O)(=O)c1ccc(OC2c3ccccc3CC2N2CCCCC2)cc1 (racemic)	%	72

# next molecule below
Query: I'd like to know its Urine P % of control. The molecule in question is CN1Cc2c(Cl)cc(Cl)cc2[C@H](c2cccc(S(=O)(=O)NCCOCCOCCOCCNC(=O)CN(CCN(CC(=O)O)CC(=O)NCCOCCOCCOCCNS(=O)(=O)c3cccc([C@@H]4CN(C)Cc5c(Cl)cc(Cl)cc54)c3)CC(=O)O)c2)C1
Result: 67

====

system: absorption of sodium from the intestinal lumen; assay: Inhibition of intestinal sodium absorption: urinary sodium (uNa) 16 h after single oral dose in rats; assay type: in vivo, rat; conditions: oral gavage, dose 10 mg/kg, 16 h post-dose
Urine Na % of control strictly under 80% means true; at 80% or over means false.

Worked set:
Compound	Class Label
CN1Cc2c(Cl)cc(Cl)cc2[C@H](c2cccc(S(=O)(=O)NCCOCCOCCNC(=O)CCC(=O)NCCOCCOCCNS(=O)(=O)c3ccc(O[C@H]4c5ccccc5C[C@@H]4N4CCCCC4)cc3)c2)C1 [compound 96]	true
NS(=O)(=O)c1ccc(O[C@H]2c3ccccc3C[C@@H]2N2CCCCC2)cc1 (racemic) [compound 38]	false
CN1Cc2c(Cl)cc(Cl)cc2[C@H](c2cccc(S(=O)(=O)NCCOCCOCCOCCNC(=O)CCN(CCC(=O)NCCOCCOCCOCCNS(=O)(=O)c3cccc([C@@H]4CN(C)Cc5c(Cl)cc(Cl)cc54)c3)CCC(=O)NCCOCCOCCOCCNS(=O)(=O)c3cccc([C@@H]4CN(C)Cc5c(Cl)cc(Cl)cc54)c3)c2)C1 [compound 79]	true
NC(N)=Nc1nc(-c2ccc(N3CCN(CCOCCOCCOCCNC(=O)NCCOCCOCCNC(=O)CN(CCN(CC(=O)O)CC(=O)NCCOCCOCCNC(=O)NCCOCCOCCOCCN4CCN(c5ccc(-c6nc(N=C(N)N)nc7ccc(Cl)cc67)cc5)CC4)CC(=O)O)CC3)cc2)c2cc(Cl)ccc2n1 [compound 46]	true
CN1Cc2c(Cl)cc(Cl)cc2[C@H](c2cccc(S(=O)(=O)NCCOCCOCCNC(=O)CN(CCOCCOCCN(CC(=O)NCCOCCOCCNS(=O)(=O)c3cccc([C@@H]4CN(C)Cc5c(Cl)cc(Cl)cc54)c3)CC(=O)NCCOCCOCCNS(=O)(=O)c3cccc([C@@H]4CN(C)Cc5c(Cl)cc(Cl)cc54)c3)CC(=O)NCCOCCOCCNS(=O)(=O)c3cccc([C@@H]4CN(C)Cc5c(Cl)cc(Cl)cc54)c3)c2)C1 [compound 85]	false

Query: Field: below-cutoff. Rule: recorded Urine Na % of control strictly less than 80%. Subject: C/C(=C\c1cc(F)c(Oc2ccc(S(=O)(=O)NCCOCCOCCOCCNC(=O)CN(CCN(CC(=O)O)CC(=O)NCCOCCOCCOCCNS(=O)(=O)c3ccc(Oc4c(F)cc(/C=C(\C)C(=O)N=C(N)N)cc4F)cc3)CC(=O)O)cc2)c(F)c1)C(=O)N=C(N)N [compound 27]
Result: true

Query: Field: below-cutoff. Rule: recorded Urine Na % of control strictly less than 80%. Subject: CN(CC(=O)NCCOCCOCCNC(=O)NCCOCCOCCN1CCN(c2cccc(-c3nc(NC(=N)N)nc4ccc(Cl)cc34)c2)CC1)CC(=O)NCCOCCOCCNC(=O)NCCOCCOCCN1CCN(c2cccc(-c3nc(NC(=N)N)nc4ccc(Cl)cc34)c2)CC1 [compound 33]
Result: false

Query: Field: below-cutoff. Rule: recorded Urine Na % of control strictly less than 80%. Subject: C/C(=C\c1cc(F)c(Oc2ccc(S(=O)(=O)NCCOCCOCCOCCN)cc2)c(F)c1)C(=O)N=C(N)N [compound 4]
Result: false
